experiment: Permeability across basolateral to apical side in human Caco-2 cells at 3 uM incubated for 2 hrs by LC-MS/MS analysis; assay type: ADME, cell-based; conditions: read-out: permeability
experimental readout: Papp B→A at 2 h, 3 µM (×10⁻⁶ cm/s)

Worked set:
>>> numeric_value("CC1CN(c2ccncc2NC(=O)c2ccnn3cc(-c4ccccc4)nc23)CCO1 (racemic)")
7.1
>>> numeric_value("CC1CN(c2ccncc2NC(=O)c2ccnn3cc(C4CC4)nc23)CCO1 (centres undefined)")
13.3

(P) O=C(Nc1cnccc1N1CCC(F)(F)CC1)c1ccnn2cc(-c3ccccc3)nc12
(Q) O=C(Nc1cnccc1N1CCOCC1)c1ccnn2cc(-c3ccccc3)nc12
Please choose the item with the lower Papp B→A at 2 h, 3 µM value from this pair: P and Q Your choice should be expressed through its label.
P
(P: 3 ×10⁻⁶ cm/s, Q: 9.9 ×10⁻⁶ cm/s)
